Provenance of the data: paper PMC12648313

Molecular target: T1, CREB1 bZIP (UniProt P16220 269-327)
T1 sequence: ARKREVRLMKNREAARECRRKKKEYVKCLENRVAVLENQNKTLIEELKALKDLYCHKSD
Experiment: fluorescence polarization; FP: chloride salt (buffer and salt concentration truncated in material), 5 mM MgCl2, 10 mM TCEP, pH 7.4; 10 nM FAM-DNA; 1 h incubation, temperature not in material
Conditions: chain copies: 2; label: 5' 6-FAM; blunt; self-complementary, 2 copies
REPORTED PROPERTY: pKd
One number for each entry, as −log10 of the molar value.

Which measured pKd value corresponds to FAM-CRE (dsDNA) DNA 1: GCGCTGACGTCAGCGC DNA 2: GCGCTGACGTCAGCGC ?
6.81
